biological target: LNX1_1, Q8TBB1; assay: holdup assay; parameters: key: below the threshold = too weak to quantify, mostly under pKd 3.1 to 4; settings: plain residues with an end cap or a label only (N-terminal biotin on a linker: ado-ado)
Sequence (Q8TBB1 261-371): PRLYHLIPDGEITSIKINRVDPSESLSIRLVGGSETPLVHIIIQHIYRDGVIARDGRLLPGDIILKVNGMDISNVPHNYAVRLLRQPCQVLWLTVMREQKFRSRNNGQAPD
result-type: pKd

Some solved cases for reference:
{"columns": ["binder", "pKd"],
 "data": [
  ["YAEKRMLTEV [KCNA6, P17658]", "below the threshold"],
  ["SSSVNVSSNL [CXCR1, P25024]", 3.59],
  ["PSVYSRSQYV [CLDN8, P56748]", "below the threshold"],
  ["SQDPKKPSRV [CBY2, Q8NA61]", 3.5],
  ["VYEVPVETKF [SLC26A3, P40879]", 3.85],
  ["PLPPEEESWV [GAS2L2, Q8NHY3]", "below the threshold"]
]}

In: Look up pKd: DLLGGGSDSI [TNRC6B, Q9UPQ9]
Out: 3.76
